molecular target: K-Ras G12D (Homo sapiens, UniProt P01116, G12D); construct: human K-Ras (G12D, aa 1-169); 6xHis tag + TEV cleavage site (N, cleaved yes); made in house; host or cells: E. coli BL21(DE3); test: Covalent modification of test protein after incubation with compound; type: binding; conditions: 24-h incubation with 100 μM compound at 23° C. at pH 7.5
endpoint-label: % covalent modification of K-Ras G12D (%)

Worked cases, answers included:
{"molecule": "CC(C)[C@@H]1C(=O)O[C@H]1C(=O)N1[C@@H]2CC[C@H]1CN(c1nc(OCC34CCCN3CCC4)nc3c(F)c(-c4cccc5cccc(Cl)c45)ncc13)C2", "% covalent modification of K-Ras G12D [%]": 100}
{"molecule": "CN1CCC[C@@H]1COc1nc2c(c(N3CCC4(CC3)COC4=O)n1)CCN(c1cccc3cccc(Cl)c13)C2", "% covalent modification of K-Ras G12D [%]": 75.7}
{"molecule": "O=C1O[C@H]2CN(c3nc(OCC45CCCN4CCC5)nc4c(F)c(-c5cccc6cccc(Cl)c56)ncc34)CC[C@@H]12", "% covalent modification of K-Ras G12D [%]": 0}
{"molecule": "O=C1OCC12CCN(c1nc(OCC34CCCN3CCC4)nc3c(F)c(-c4cccc5cccc(Cl)c45)ncc13)CC2", "% covalent modification of K-Ras G12D [%]": 0}

A. CN1CCC[C@@H]1COc1nc2c(c(N3CCC4(CC3)CN(S(=O)(=O)O)C4=O)n1)CCN(c1cccc3cccc(Cl)c13)C2
B. N#CC[C@H]1CN(c2nc(OCC34CCCN3CCC4)nc3c(F)c(-c4cccc5cccc(Cl)c45)ncc23)CCN1C(=O)C1CC(=O)O1 (stereo partly drawn)
C. Cc1ccc2[nH]ncc2c1-c1cc2ncnc(N3CCC(C(=O)N[C@H]4COC4=O)CC3)c2cc1Cl
D. Cc1ccc2[nH]ncc2c1-c1cc2ncnc(N3CCC(C(=O)N[C@@H]4COC4=O)CC3)c2cc1Cl
E. CN1CCC[C@H]1COc1nc2c(c(N3CCC4OC(=O)C4C3)n1)CCN(c1cccc3cccc(Cl)c13)C2 (stereo partly drawn)
Task: # rank by % covalent modification of K-Ras G12D, ascending (min first) The reply should contain the labels ordered as requested.
Output: A, D, C, E, B

---

biological target: wild type K-Ras (Homo sapiens, UniProt P01116); construct: human K-Ras (wildtype, aa 1-169); 6xHis tag + TEV cleavage site (N, cleaved yes); made in house; host or cells: E. coli BL21(DE3); assay: Covalent modification of test protein after incubation with compound; assay type: binding; conditions: 24-h incubation with 100 μM compound at 23° C. at pH 7.5
endpoint-label: % covalent modification of wild type K-Ras (%)

Worked cases, answers included:
{"compound": "CN1CCC[C@@H]1COc1nc2c(c(N3CC[C@@]4(C)C(=O)O[C@H]4C3)n1)CCN(c1cccc3cccc(Cl)c13)C2 [Compound 12-028]", "val": 0}
{"compound": "CC1(c2cc(NCC(=O)N3CC[C@H]4OC(=O)[C@H]4C3)c(O)cc2Cl)CC1 [Compound 06-092]", "val": 8.0}
{"compound": "N#CC[C@H]1CN(c2nc(OCC34CCCN3CCC4)nc3c(F)c(-c4cccc5cccc(Cl)c45)ncc23)CCN1C(=O)C1CC(=O)O1 (stereo partly shown) [Compound 14-005]", "val": 0}
{"compound": "CN1CCC[C@@H]1COc1nc2c(c(N3CCC4(CC3)CNC4=O)n1)CCN(c1cccc3cccc(Cl)c13)C2 [Compound 12-064]", "val": 0}
{"compound": "CN1CCC[C@H]1COc1nc2c(c(N3CCC4C(=O)OC4C3)n1)CCN(c1cccc3cccc(Cl)c13)C2 (stereo partly shown) [1′]", "val": 7.0}
{"compound": "CN1CCC[C@@H]1COc1nc2c(c(N3CCN4C(=O)C[C@H]4C3)n1)CCN(c1cccc3cccc(Cl)c13)C2 [Compound 12-074]", "val": 0}
{"compound": "CN1CCC[C@H]1COc1nc2c(c(N3CCC4OC(=O)C4C3)n1)CCN(c1cccc3cccc(Cl)c13)C2 (stereo partly shown) [2′]", "val": 0}
{"compound": "C#Cc1c(F)ccc2cc(O)cc(-c3ncc4c(N5C[C@H]6CC[C@@H](C5)N6C(=O)[C@@H]5OC(=O)C5(C)C)nc(OC[C@@]56CCCN5C[C@H](F)C6)nc4c3F)c12 [(R)-7]", "val": 0}

a. CC1(c2cc(NCC(=O)N3CC[C@H]4OC(=O)[C@@]4(C)C3)c(O)cc2Cl)CC1 [Compound 08-043]
b. CN1CCC[C@@H]1COc1nc2c(c(N3CC[C@H]4C(=O)O[C@H]4C3)n1)CCN(c1cccc3cccc(Cl)c13)C2 [Compound 12-077]
c. Cc1ccc2[nH]ncc2c1-c1cc2ncnc(N3CC(C(=O)N[C@@H]4COC4=O)C3)c2cc1Cl [Compound 03-100]
d. CN1CCC[C@@H]1COc1nc2c(c(N3CCC4(CC3)COC4=O)n1)CCN(c1cccc3cccc(Cl)c13)C2 [Compound 13-005]
e. CC1(c2cc(NCC(=O)N3CC[C@H]4C(=O)O[C@H]4C3)c(O)cc2Cl)CC1 [Compound 06-093]
Task: # rank by % covalent modification of wild type K-Ras, ascending (min first) The reply should contain the labels ordered as requested.
Output: a, e, b, c, d
